Origin of the recorded values: patent US20190106487A1

MEASURED TARGET: T1, human IL-1RAcP on 293T/17-FR cells (human, UniProt Q9NPH3 21-570)
T1 sequence (looked up): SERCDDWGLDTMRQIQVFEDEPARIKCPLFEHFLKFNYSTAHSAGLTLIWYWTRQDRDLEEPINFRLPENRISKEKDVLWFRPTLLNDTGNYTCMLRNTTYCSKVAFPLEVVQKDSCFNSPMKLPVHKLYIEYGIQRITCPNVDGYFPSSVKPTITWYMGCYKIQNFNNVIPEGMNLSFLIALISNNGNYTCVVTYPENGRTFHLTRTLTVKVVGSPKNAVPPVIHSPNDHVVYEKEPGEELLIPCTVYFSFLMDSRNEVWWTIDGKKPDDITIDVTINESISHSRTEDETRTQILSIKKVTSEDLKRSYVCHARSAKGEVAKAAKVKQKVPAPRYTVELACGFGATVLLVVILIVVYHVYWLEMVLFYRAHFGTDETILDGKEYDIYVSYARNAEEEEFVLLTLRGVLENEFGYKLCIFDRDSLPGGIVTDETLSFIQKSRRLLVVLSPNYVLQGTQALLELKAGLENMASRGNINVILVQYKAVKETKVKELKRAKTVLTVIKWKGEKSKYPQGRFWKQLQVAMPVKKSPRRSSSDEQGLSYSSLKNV
ASSAY PROTOCOL: cell-based or functional assay
VALUE KIND: primary supernatant functional assay (% inh.), NF-kB luciferase reporter (%)
Hi! Could you send only the number? It should be in %, unit omitted.

Prompt: Give me measured primary supernatant functional assay (% inh.), NF-kB luciferase reporter, please, for this binder: P013.S.01.B.B02 (antibody, V domains shown, rabbit monoclonal antibody; also called P013.A.00014.B03) VH: LEQSGGGAEGGLVKPGGSLELCCKASGFSLSSSYWICWVRQAPGKGLEWIGCIYTGSSGITYYASWVNGRFTLSRDIDQSTGCLQLNSLTAADTAMYYCAKDGPSTLFNFWGQGTLVTVSS VL: ALVMTQTPSPVSAAVGGTVTINCQASEDIYSNLAWFQQKPGQPPKLLIYRASTLASGVPSRFKGSGSGTEFTLTISGLQSDDAATYYCLGVYTYPSADNAFGGGTEVVVR
Response: 97

Prompt: Note primary supernatant functional assay (% inh.), NF-kB luciferase reporter for the binder shown: P013.S.01.B.E04 (antibody, V domains shown, rabbit monoclonal antibody; also called P013.A.00109.D07) VH: QSVEESGGRLVTPGTPLTLTCTVSGIDLNSNGINWVRQAPGKGLEWIGYIGAGDITYCASWAKGRFTISKTSSTTVDLKITSLTTEDTATYFCARWGPGALDLWGQGTLVTVSS VL: AQVLTQTASSVSATVGGTVTISCQSSQSVYNNNYLSWYQQKPGQPPKLLIYKASTLASGVPLRFSGSGSGTQFTLTISGVQSDDAATYYCAGFYETTDVGFGGGTEVVVK
Response: 88

Prompt: Give recorded primary supernatant functional assay (% inh.), NF-kB luciferase reporter. P013.S.01.B.C06 (antibody, V domains shown, rabbit monoclonal antibody; also called P013.A.00014.D06) VH: QSVEESGGRLVTPGGSLTLTCTVSGFSLSIYAMGWFRQAPGKGLEWIGDIYAGSGSTWYASWAKGRFTISKTSTTVDLKITSPTTEDTATYFCAREIDAGYVGYGFNLWGQGTLVTVSS VL: AQALTQTPSSVSAAVGGTVTINCQSSQSVYSDYLAWYQQKPGQPPKLLIYQASKLATGVPSRFKGSGSGTQFTLTISGVQSDDAATYYCQATYYGSGWYRAFGGGTELVVK
Response: 72

Prompt: Provide measured primary supernatant functional assay (% inh.), NF-kB luciferase reporter value, entry: P013.S.02.B.G02 (antibody, V domains shown, rabbit monoclonal antibody; also called P013.A.00014.C07) VH: QSLEESGGDLVKPGASLTLTCTASGFSLSSGGMTWVRQAPGKGLEWIGYINTGSGRTYYASWAKGRFIISKTSSTTVSLQMTSLTAADTATYFCAGGLPSDLWGPGTLVTVSS VL: DIVMTQTPSSVEAAVGGTVTIKCQASQSINSRLAWYQQKPGQPPKLLIYDASTLASGVSSRFSGSGTEFTLTISDLESADGATYYCLSHYLTSSSSYGNAFGGGTEVVVK
Response: -39

Prompt: Report primary supernatant functional assay (% inh.), NF-kB luciferase reporter, nothing else, for this binder: P013.S.01.B.H06 (antibody, V domains shown, rabbit monoclonal antibody; also called P013.A.00086.B03) VH: LEQSGGGGEGGLVKPGGSLELCCKASGFSLSSSYWICWVRQAPGKGLEWIGCIYVGSSGSTYYASWVSGRFTLSRDIDQSTGCLQLNSLTAADTAMYYCARDIYGSTNGYDLWGQGTLVTVSS VL: ALVMTQTPSPVSAAVGGTVTINCQASEDIYSNLAWFQQKPGQPPKLLIYQASKLASGVPSRFSGSGSGTEFTLTISGLQSDDVATYYCLGVGTYISGDGSLDNAFGGGTEVVVK
Response: 91
